biological target: PDE4B1 (Homo sapiens); construct: purchased BPS 60041; assay: PDE4 inhibitory activity assay (FAM-cAMP enzymatic reaction), PDE4B1; assay type: biochemical; details: 20 nM
Sequence (Q07343 whole entry): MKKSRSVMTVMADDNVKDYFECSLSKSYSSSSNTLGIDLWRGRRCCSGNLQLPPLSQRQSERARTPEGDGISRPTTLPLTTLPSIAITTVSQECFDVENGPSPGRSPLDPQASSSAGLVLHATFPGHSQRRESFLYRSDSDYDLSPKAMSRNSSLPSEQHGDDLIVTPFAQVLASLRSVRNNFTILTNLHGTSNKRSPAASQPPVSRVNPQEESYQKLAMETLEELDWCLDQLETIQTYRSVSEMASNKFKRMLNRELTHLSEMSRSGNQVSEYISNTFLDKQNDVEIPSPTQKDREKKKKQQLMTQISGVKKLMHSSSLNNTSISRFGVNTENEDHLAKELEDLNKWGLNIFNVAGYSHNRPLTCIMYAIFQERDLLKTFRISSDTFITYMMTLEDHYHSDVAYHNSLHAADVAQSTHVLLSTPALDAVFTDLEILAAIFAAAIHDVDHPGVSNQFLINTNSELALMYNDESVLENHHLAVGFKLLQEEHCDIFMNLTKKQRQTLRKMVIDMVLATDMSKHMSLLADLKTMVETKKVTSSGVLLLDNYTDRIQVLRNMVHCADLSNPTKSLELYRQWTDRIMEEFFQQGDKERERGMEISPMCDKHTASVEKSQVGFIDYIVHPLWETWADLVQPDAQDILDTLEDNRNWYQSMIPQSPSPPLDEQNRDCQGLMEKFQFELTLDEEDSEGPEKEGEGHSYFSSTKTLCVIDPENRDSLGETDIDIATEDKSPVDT
quantity: PDE4 B1 inhibitory effect at 20 nM

Known results for compounds:
{"compound": "CCOc1nc([C@@H](CS(C)(=O)=O)n2c(=O)n(C)c3cc(-c4c(F)cccc4F)ccc32)ccc1OC [Ex. 155]", "PDE4 B1 inhibitory effect at 20 nM": "+"}
{"compound": "CCOc1nc([C@@H](CS(C)(=O)=O)n2c(=O)[nH]c3c(C)c(-c4c(C)cccc4C)cnc32)ccc1OC [Ex. 34]", "PDE4 B1 inhibitory effect at 20 nM": "+"}
{"compound": "CCOc1nc([C@@H](CS(C)(=O)=O)n2c(=O)[nH]c3c(-c4ccccc4)cccc32)ccc1OC [Ex. 206]", "PDE4 B1 inhibitory effect at 20 nM": "+"}
{"compound": "CCOc1nc([C@@H](CS(C)(=O)=O)n2c(=O)n(CC(F)F)c3c(C)c(-c4ccccc4F)cnc32)ccc1OC [Ex. 56]", "PDE4 B1 inhibitory effect at 20 nM": "+"}
{"compound": "CCOc1nc([C@@H](CS(C)(=O)=O)n2c(=O)n(C)c3cc(-c4ccc(F)cc4C)ccc32)ccc1OC [Ex. 170]", "PDE4 B1 inhibitory effect at 20 nM": "+"}

Given item CCOc1nc([C@H](CS(C)(=O)=O)n2c(=O)[nH]c3cc(-c4ccccc4F)ccc32)ccc1OC [Ex. 134] , the value recorded as its PDE4 B1 inhibitory effect at 20 nM is +

Given item CCOc1nc([C@@H](CS(C)(=O)=O)n2c(=O)n(C)c3cc(-c4cc(F)ccc4OC)ccc32)ccc1OC [Ex. 187] , the value recorded as its PDE4 B1 inhibitory effect at 20 nM is +
